experimentalProtocol: yeast display, Sf9 membrane polyspecificity reagent, FACS + sequencing; frameworks hold sequencing errors
measurementType: polyreactivity (PSR sort gate)

Would you please look over these solved cases?
QVQLVESGGGLVQAGGSLRLSCAASGIIFRFYSMGWYRQAPGKERELLAVITSRSDSTYYADSVKGRFTISRDNAKNTVYLQMNSLKPEDTAVYYCNARYPWYYRYSTYDYWGQGTQVTVSS ... high polyreactivity
QVQLVESGGGLVQAGGSLRLSCAASGFIFYPYAMGWYRQAPGKERELVASIYSGGRTYYADSVKGRFTISRDNAKHTVYLQMNSLKPEDTAVYYCNARSRYFGYDYWGQGTQVTVSS ... high polyreactivity
QVQLVESGGGLVQAGGSLRISCAASGFIFQSNAMGWYRQAPGKERELVAAISWSGDNTYYADSVKGRFTISRDNAKNTVYLQMNSLKPEDTAVYYCAAVPYPSYYDTGYDYWGQGTQVTVSS ... low polyreactivity
QVQLVESGGGLVQAGGSLRLSCAASGRTFLYNTRGWYRQAPGKERELVATITGSGASTYYADSVKGRFTISRDNAKNTVYLQMNSLKPEDTAVYYCATDNVYAYDYWGQGTQLTVSS ... high polyreactivity
QVQLVESGGGLVQAGGSLRLSCAASGRTFFYYAMGWYRQAPGKERELVAAISGRGGRTYYADSVKGRFTISRDNAKNTVYLQMNSLKPEDTAVYYCNTRGTRIASGHYYWGQGTQVTVSS ... high polyreactivity

Fill in: polyreactivity (PSR sort gate) of `QVQLVESGGGLVQAGGSLRLSCAASGLIFGGNAMGWYRQAPGKERELVAAISRSTGRTYYADSVKGRFTISRDTAKNTVYLQMNSLKPEDTAVYYCNAVGYAFPSYDSWGQGTQVTVSS` is ___
high polyreactivity

What do you have for `QVQLVESGGGLVQAGGILRLSCAASVRIFGVYAMGWYRQAPGKERELVAAITSGGSTTYADSVKGRFTISRDNAKNNVYLQMNSLKQEDTAVYYCNKEPQPFFLYGYWGQGTQVTVSS` ?
low polyreactivity

Likewise for `QVQLQESGGCLVQAGGSLRKSCAASGNIFDADIMGWYRQAPGKERELVASITDGRRTNYADSVKGRYTISRDSENNTVYLQLNSLKAEDTAVYYCAAIAYPVVPTYFDYDSDFFHWGQGTQVTVSS` ?
high polyreactivity

Thanks! And `QVQLVESGGGLVQAGGSLRLSCAASGSTLAPYVMGWYSQAPGKERELVAVISTRTGRTYYADSVKGRFTISRDNAKNTVSLQMNSLKPEDTAVYYCNAYPHAYTGSTREGDYWGQGTQVTVSS` ?
high polyreactivity

Try this sequence too: `QDQLVESRGVLVQAGGSLRLSCAASGSTFEANAMGWYRQAPGKERELVAVITWTGGSTYYADSVKGRFTISRDNAKNTVYLQMNSLKPEDTAVYYCAADGVVPGRFFWPAHEYDYWGQGTQVTVSS`
low polyreactivity

====

experimentalProtocol: yeast display, Sf9 membrane polyspecificity reagent, FACS + sequencing; frameworks hold sequencing errors
measurementType: polyreactivity (PSR sort gate)

QVQLVESGGGLVQAGGSLRLTCAASGRTFGRYAMGWYRQAPGKEMDLVAAIRYTGGSTYADSVKGRFTISRDNAKNTVYLQMNRLKPEETAVYYCNRCGAFNTRNEITRYGYWGQGTQVTVSS ... low polyreactivity
QVQLVESGRGLVQAGGSLRLSCAASGSTFVRNAMGWYRQAPGKERELDAAITSSGGSTYYADSVKGRFTISRDYAKNTVYVQMNRLKPEDTAVYYCGKRRYYRYDYWGLGTQVTVSS ... low polyreactivity
QVQLVESGGGLVQAGGSLRLSCAASGFIFTGNAMGWYRQAPGKERELVAAITQSGGHTSYADSVKGRFTISRDNAKNTVYLQMNSLKPEDTAVYYCNAEYTWPYHGVRNGWFNFKYEYWGQGTQVTVSS ... low polyreactivity

====

experimentalProtocol: yeast display, Sf9 membrane polyspecificity reagent, FACS + sequencing; frameworks hold sequencing errors
measurementType: polyreactivity (PSR sort gate)

// solved cases for polyreactivity (PSR sort gate) follow
QVQLVESGGALVQAGGRLRLSCAASGSTFTYNAMGWYRQAPGKERELVASISSGTTTYYADSVKGRFTISRDNAKNTVSLQMNSLKPEDTAVYDCAVDSWSRVQGWLAHNYDYWGQGTQVTVSS ... low polyreactivity
QVQLVESGGGLVQAGGSLRLSCAASGSTFGIYPMAGNRTEPGKERELVAAISSGGSTNYADSVKGRFTISRDNAKNSVYLQMNSLNPEDTAVYYCAVESVYEYGGYVDSAYDYWGQGTQVTVSS ... low polyreactivity
QVQLVESGGGLVQAGGSLRLSCAASGRIFGPYAMGWYRQAPGKERELVAAISWSGGSTYYADSVKGRFTISRDNAKNTVFLQMNSLKPEDTAVYYCAARERRVYGDRFYKLDYWGQGTQVTVSS ... high polyreactivity
QVQLVESGGVLVQAGGRLRLSCAASGLTFNENVMGWYRQAPGKERELVAAISTGASTYYADSVKGRFTISRDNAKNTVYLQMNSLKPEDTAVYYCAKRVNRWYGYWGQGTQVTVSS ... high polyreactivity
QVQLVESGGGLVQAGGSLRLSCADSGSTFSYYAMGWYRQAPGKEGELVAAISARGGSTNYADSVKGRFTISRDNAKNTVYLQMNSLKPEDTAVYYCAAYDPLVDYFRYAYSDDYWGQGTQVTVSS ... high polyreactivity
QVQLVESGGGLVQAGGSLRLSCAASGIIFRKNAMGWYRQAPGKERELVAAISSTGASTNYADSVKGRFTISRDNAKNTVYLQMNSLKPEDTAVYYCAASRTRYWKYDYWGQGTQVTVSS ... high polyreactivity

Item under review: `QLHLVESGGGLVQAGGSLRLSCAASGRIFFYAMGWYRQAPGKERDLVASITTSGTSTYYADSVKGRFTISRDNSKNTVYLEMNSLKPEDTSVYYCNATSNSIRWYDFYYWGQGTQVTVSS` . Reported polyreactivity (PSR sort gate)?
low polyreactivity

Record: `QVQLVESGGGLVQAGGSLRLSCAASGSSFRFYAMGWYRQAPGKERELVATIRYSTGTTYYADSVKGRFTISRDNAKNTVYLQMNSLKPEDTAVYYCAAGYFIYSWRIRFDYWGQGTQVTVSS`
high polyreactivity

Similarly, `QVQLVESGGGLVQAGGSLRLSCAASGSIFESYVMGWSRPAPGTEREMVAAISSGGSTYYADSVKGRFTISRDNAKNTVYLQMNSLKPEDTAVYYCAANYDGGYLDYEAGYRLEYDYWGQGTQVTVSS` ?
low polyreactivity

Okay, and `QVQLVESGGALVQAGGSLRLSCAASAFIFRINAMGWYRQAPGKERELVAAISGSGGRTYYADSVKGRFTISRDNAKNTVYLQMNSLKPVDTAVYYCARSSGYGFNYWGQGTQVTVSS` ?
high polyreactivity

====

experimentalProtocol: yeast display, Sf9 membrane polyspecificity reagent, FACS + sequencing; frameworks hold sequencing errors
measurementType: polyreactivity (PSR sort gate)

Past entries and their recorded results:
QVQLVESGGGLVQAGGSLRLSCAASGFTFARYAMGWYRQAPGKERELVAAISRGTTTYYADSVKGRFTISRDNAKNTVYLQMNILKPDDTAVYYCAAVTTRTYPGRYYYWGQGTQVTVSS ... high polyreactivity
QVQLVESGGGLVQAGGSLRLSCAASGIFRSNARGWYRQAPGKERELVAGISSGGGTNYADSVKGRFTISRDNAKNTVYLQMNSLKPEDTAVYYCAKERIYFDYWYVYTDLVYEYDYWGQGSQVTVSS ... low polyreactivity
QVQLVESGGGLVQAGGSLRLICAASGLIFVYYAMGWYRQAPGKERELVAAIDWSSTRTYYADSVKGRFTISRDNATNTVYLQMNSLKPEDTAVYYCAAESRYLSWFDYWGQGTQVTVSS ... high polyreactivity
QVQLVESGGGLVQAGGSLRLSCAASGRTCRHNAMGWYRQAPGTERELVAAISSSGTNTHYADSVKGRFTISRDNAKNTVYLQMNSLKPEDTAVYYCAADRWGARRKQYHENGYWAQGTQVTVSS ... high polyreactivity
QVQLVESGGGLVQAGGSLRLSCAASGSISWKYAMGWSRQAPGKERELVAAISWSGSSTYYADSVKGRFTISRDNAKNTVYLQMNSLKPEDTAVYYCAADRVSRLTNRREYWGQGTQVTVSS ... high polyreactivity

// query polyreactivity (PSR sort gate) value for entry `QVQLVESVGGLVQAGGSLRLSCAASGSIFYWSAMGWYRQAPGKERELVAAISSGGSTNYADSVKGRFTISRDNAKNTVYLQMNSLKPEDTAVYYCAAGWDASYGYDYWGQGTQVTVSS`
low polyreactivity

Again, but for `QVQLVESVGGLVQAGGSLRLSCAASGNTFRRNVMGLYRQAPGKERELVAAINRGGSTYYADSVKGRFTISRDNAKNTVYLQMNSLKPEDTAVYYCNAVTRGYYHEMEYWGQGTQVTVSS`
high polyreactivity
